Source of measurements: ChEMBL document CHEMBL3102727

run description: Aqueous solubility of the amorphous form of compound in phosphate buffer at pH 6.5
Format: physicochemical
result type: solubility (µg/mL)
Expressed in µg/mL, but write only the number.

>>> print(df.to_string())
                                   molecule  numeric_result
0  CN1CCC2(CC1)CN(c1ccccc1NC(=O)Nc1ccc(OC(F)(F)F)cc1)c1ccccc12             100

Quick check: solubility of CC(C)(C)CN1CCC2(CC1)CN(c1ccccc1NC(=O)Nc1ccc(OC(F)(F)F)cc1)c1cccnc12 ?
5

Next: COCCN1CCC2(CC1)CN(c1ccccc1NC(=O)Nc1ccc(OC(F)(F)F)cc1)c1ccccc12
66

Next: O=C(O)CN1CCC2(CC1)CN(c1ccccc1NC(=O)Nc1ccc(OC(F)(F)F)cc1)c1ccccc12
5

Next: CC(C)(C)CN1CCC2(CC1)CCN(c1ccccc1NC(=O)Nc1ccc(OC(F)(F)F)cc1)c1ccccc12
16
